- System: LOC_OS04G41100-cb001
- Sequence (as listed by the source): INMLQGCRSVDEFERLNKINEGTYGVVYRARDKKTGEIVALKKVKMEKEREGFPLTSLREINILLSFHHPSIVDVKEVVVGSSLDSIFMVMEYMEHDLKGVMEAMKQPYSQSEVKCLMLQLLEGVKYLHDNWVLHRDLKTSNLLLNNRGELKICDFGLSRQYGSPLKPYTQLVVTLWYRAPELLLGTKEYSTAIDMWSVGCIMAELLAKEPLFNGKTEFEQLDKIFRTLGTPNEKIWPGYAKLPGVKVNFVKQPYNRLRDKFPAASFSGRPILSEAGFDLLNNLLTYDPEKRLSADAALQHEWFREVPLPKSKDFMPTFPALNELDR
- assay notes: thermal shift delta Tm vs DMSO control; higher = stronger stabilization (binding);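 further: purified Escherichia coli-expressed rice kinase domain construct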
- study conditions: 12.5 µM; protein concentration 2 µM
readout type: thermal shift delta Tm

>  <structure smiles string>
C=CCc1ccc(O)c(-c2ccc(O)c(CC=C)c2)c1

>  <readout type>
thermal shift delta Tm

>  <obs value>
0.48 °C

$$$$
>  <structure smiles string>
Cn1cc(-c2ccc3c(c2)CCN3C(=O)Cc2cccc(C(F)(F)F)c2)c2c(N)ncnc21

>  <readout type>
thermal shift delta Tm

>  <obs value>
1.28 °C

$$$$
>  <structure smiles string>
COc1cc2ncnc(Nc3ccc(Cl)cc3F)c2cc1OC

>  <readout type>
thermal shift delta Tm

>  <obs value>
0.5 °C

$$$$

* * *

Property: thermal shift delta Tm; scope: individual molecules
- System: LOC_OS01G63280-cb003
- assay notes: thermal shift delta Tm vs DMSO control; higher = stronger stabilization (binding)
- study conditions: 12.5 µM; protein concentration 2 µM
readout type: thermal shift delta Tm (°C)

>  <molecule>
O=C(c1cccc(Cl)c1F)N1CCN(Cc2cccc(Nc3nccs3)n2)CC1

>  <unit>
°C

>  <obs value>
0.37

$$$$
>  <molecule>
COc1cc(C(=O)N2CCC(N3CCN(C)CC3)CC2)ccc1Nc1ncc2c(n1)N(C)c1ccccc1C(=O)N2C

>  <unit>
°C

>  <obs value>
-0.2

$$$$
>  <molecule>
Nc1nc(Nc2ccc(S(N)(=O)=O)cc2)nn1C(=O)c1c(F)cccc1F

>  <unit>
°C

>  <obs value>
3.58

$$$$
>  <molecule>
CNC(=O)c1cccc(-c2ccc3c(N4CCOC[C@@H]4C)nc(N4CCOC[C@@H]4C)nc3n2)c1

>  <unit>
°C

>  <obs value>
0.16

$$$$
>  <molecule>
COc1ccc2c(c1)[C@]1(C[C@H]1c1ccc3c(/C=C/c4ccc(CN5C[C@@H](C)O[C@@H](C)C5)cc4)n[nH]c3c1)C(=O)N2

>  <unit>
°C

>  <obs value>
1.2

$$$$
>  <molecule>
NC1(c2ccc(-c3nc4ccn5c(=O)[nH]nc5c4cc3-c3ccccc3)cc2)CCC1

>  <unit>
°C

>  <obs value>
-0.33

$$$$
>  <molecule>
COc1cc2c(Oc3ccc(NC(=O)C4(C(=O)Nc5ccc(F)cc5)CC4)cc3F)ccnc2cc1OCCCN1CCOCC1

>  <unit>
°C

>  <obs value>
0.93

$$$$
>  <molecule>
C=C(C)[C@@H]1CC[C@]2(C)CC[C@]3(C)[C@H](CC[C@@H]4[C@@]5(C)CC[C@H](O)C(C)(C)[C@@H]5CC[C@]43C)[C@@H]12

>  <unit>
°C

>  <obs value>
0.13

$$$$
>  <molecule>
CC[C@H](CO)Nc1nc(NCc2ccccc2)c2ncn(C(C)C)c2n1 [Roscovitine (Seliciclib,CYC202)]

>  <unit>
°C

>  <obs value>
0.16

$$$$
>  <molecule>
Cn1ncc(Cl)c1-c1cc(C(=O)N[C@H](CN)Cc2cccc(F)c2)sc1Cl

>  <unit>
°C

>  <obs value>
0.1

$$$$
>  <molecule>
C=CC(=O)N1CCC(Oc2cc3c(Nc4ccc(Cl)c(Cl)c4F)ncnc3cc2OC)CC1 [Poziotinib (HM781-36B)]

>  <unit>
°C

>  <obs value>
0.26

$$$$
>  <molecule>
O=C(O)c1ccc2c3c1cccc3c(=O)n1c3ccccc3nc21

>  <unit>
°C

>  <obs value>
0.76

$$$$
>  <molecule>
Cc1ccc(NC(=O)Nc2cc(C(F)(F)F)ccc2F)cc1Nc1ccc2c(c1)NC(=O)/C2=C\c1ccc[nH]1

>  <unit>
°C

>  <obs value>
2.05

$$$$
>  <molecule>
CN(C)C/C=C/C(=O)Nc1ccc(C(=O)Nc2cccc(Nc3ncc(Cl)c(-c4c[nH]c5ccccc45)n3)c2)cc1

>  <unit>
°C

>  <obs value>
1.68

$$$$
>  <molecule>
O=C1NC(=O)[C@@H](c2cn3c4c(cccc24)CCC3)[C@@H]1c1c[nH]c2ccccc12 [Tivantinib (ARQ 197)]

>  <unit>
°C

>  <obs value>
0.24

$$$$
>  <molecule>
COc1ncc(-c2cc(-c3ncc(CN4C[C@@H](C)O[C@@H](C)C4)o3)c3cn[nH]c3c2)cc1NS(C)(=O)=O

>  <unit>
°C

>  <obs value>
0.17

$$$$
>  <molecule>
COc1cc2nccc(Oc3ccc(NC(=O)C4(C(=O)Nc5ccc(F)cc5)CC4)cc3)c2cc1OC [Cabozantinib malate (XL184)]

>  <unit>
°C

>  <obs value>
0.47

$$$$
>  <molecule>
CCc1cccc(CC)c1NC(=O)N1Cc2[nH]nc(NC(=O)c3ccc(N4CCN(C)CC4)cc3)c2C1

>  <unit>
°C

>  <obs value>
0.43

$$$$
>  <molecule>
CC(C)c1cnn2c(NCc3ccccc3-n3cccn3)nc(OC3CCCNC3)nc12 (stereo not drawn)

>  <unit>
°C

>  <obs value>
0.47

$$$$
>  <molecule>
COc1cc2ncnc(Oc3cccc(NC(=O)Nc4cc(C(C)(C)C(F)(F)F)on4)c3)c2cc1OC

>  <unit>
°C

>  <obs value>
1.66

$$$$
>  <molecule>
CN1CCC(COc2cnc(-c3cccc(Cn4nc(-c5cccc(C#N)c5)ccc4=O)c3)nc2)CC1

>  <unit>
°C

>  <obs value>
-0.13

$$$$
>  <molecule>
OCCn1cc(-c2cnc3nnn(Cc4ccc5ncccc5c4)c3n2)cn1

>  <unit>
°C

>  <obs value>
0.3

$$$$
>  <molecule>
O=C(NCc1ccccc1)c1csc(Nc2ccncn2)n1

>  <unit>
°C

>  <obs value>
0.81

$$$$
>  <molecule>
COc1ccccc1-c1cc(Nc2cccc(CS(N)(=O)=O)c2)ncn1

>  <unit>
°C

>  <obs value>
0.28

$$$$
>  <molecule>
CCn1c(=O)c(-c2ccc(-c3cncs3)cc2Cl)cc2cnc(Nc3ccc(N4CCN(C)CC4)cc3)nc21

>  <unit>
°C

>  <obs value>
0.25

$$$$
>  <molecule>
CCCCNc1ncc2c(-c3ccc(CN4CCN(C)CC4)cc3)cn([C@H]3CC[C@H](O)CC3)c2n1

>  <unit>
°C

>  <obs value>
0.95

$$$$
>  <molecule>
CN(C[C@@H]1COCCO1)S(=O)(=O)Nc1ccc2ccc3ncc(-c4cnn(C)c4)cc3c(=O)c2c1

>  <unit>
°C

>  <obs value>
1.83

$$$$
>  <molecule>
O=C(NCCO)c1cccc(-c2cc(Nc3ccc(OC(F)(F)F)cc3)ncn2)c1

>  <unit>
°C

>  <obs value>
0.31

$$$$

* * *

- Test system: LOC_OS04G41100-cb001
- assay notes: thermal shift delta Tm vs DMSO control; higher = stronger stabilization (binding)
- study conditions: 12.5 µM; protein concentration 2 µM
readout type: thermal shift delta Tm (°C)

>  <compound>
Cc1cc(C)c(/C=C2\C(=O)Nc3ccccc32)[nH]1 [Semaxanib (SU5416)]

>  <tested system>
LOC_OS04G41100-cb001

>  <readout type>
thermal shift delta Tm

>  <unit>
°C

>  <obs value>
0.32

$$$$
>  <compound>
COc1cc2ncnc(Nc3ccc(O)c(Br)c3)c2cc1OC

>  <tested system>
LOC_OS04G41100-cb001

>  <readout type>
thermal shift delta Tm

>  <unit>
°C

>  <obs value>
0.46

$$$$
>  <compound>
Nc1nc(N)c2nc(-c3cccc(O)c3)c(-c3cccc(O)c3)nc2n1

>  <tested system>
LOC_OS04G41100-cb001

>  <readout type>
thermal shift delta Tm

>  <unit>
°C

>  <obs value>
0.63

$$$$
>  <compound>
CC(C)(CO)n1cc(C(=O)c2cncc(NC(=O)Cc3ccc(Cl)cn3)c2)c2cnc(N)nc21

>  <tested system>
LOC_OS04G41100-cb001

>  <readout type>
thermal shift delta Tm

>  <unit>
°C

>  <obs value>
0.41

$$$$
>  <compound>
N#Cc1c(O)c2c(-c3ccc(-c4ccccc4O)cc3)csc2[nH]c1=O

>  <tested system>
LOC_OS04G41100-cb001

>  <readout type>
thermal shift delta Tm

>  <unit>
°C

>  <obs value>
0.62

$$$$
>  <compound>
Cc1c(CN2CCN(C(=O)[C@H](C)O)CC2)sc2c(N3CCOCC3)nc(-c3cnc(N)nc3)nc12

>  <tested system>
LOC_OS04G41100-cb001

>  <readout type>
thermal shift delta Tm

>  <unit>
°C

>  <obs value>
0.47

$$$$

* * *

- Test system: LOC_OS03G50450-cb001
- assay notes: thermal shift delta Tm vs DMSO control; higher = stronger stabilization (binding)
- study conditions: 12.5 µM; protein concentration 2 µM
Property: thermal shift delta Tm; scope: individual compounds

>  <compound>
N#Cc1c(Oc2ccc(F)c(NC(=O)Cc3cccc(C(F)(F)F)c3)c2)ccc2nc(NC(=O)C3CC3)sc12

>  <thermal shift delta Tm>
0.4 °C

$$$$
>  <compound>
NC1(c2ccc(-c3nc4ccn5c(=O)[nH]nc5c4cc3-c3ccccc3)cc2)CCC1

>  <thermal shift delta Tm>
0.2 °C

$$$$
>  <compound>
Cc1[nH]c(/C=C2\C(=O)Nc3ccccc32)c(C)c1CCC(=O)O [Orantinib (TSU-68, SU6668)]

>  <thermal shift delta Tm>
5.03 °C

$$$$
>  <compound>
NC(=O)c1cnc(N[C@@H]2CCCC[C@@H]2N)nc1Nc1cccc(-n2nccn2)c1

>  <thermal shift delta Tm>
3.61 °C

$$$$
>  <compound>
COc1ccc(S(=O)(=O)N(CCO)c2ccccc2CN(C)C/C=C/c2ccc(Cl)cc2)cc1 [KN-93 Phosphate]

>  <thermal shift delta Tm>
0.48 °C

$$$$
>  <compound>
CN(c1ccccc1CNc1nc(Nc2ccc3c(c2)CC(=O)N3)ncc1C(F)(F)F)S(C)(=O)=O

>  <thermal shift delta Tm>
3.16 °C

$$$$

These data points were gathered from the supplement of paper PMC9694430.
